Test system: MRC5 cells (human lung fibroblasts)
PROCEDURE_SUMMARY: MRC5 proliferation assay
Assay type: cell-based
EXPERIMENTAL_PARAMETERS: geometric mean of two or more determinations
The compounds listed here are annotated with their EC50.

COMPOUND: C[C@@H](c1ccccc1)n1c(=O)[nH]c2ncc(-c3ccc(F)cc3)nc21 [Compound 8]
OBSERVED_MEASUREMENT: > 50 µM
//
COMPOUND: C[C@H](c1ccccc1)n1c(=O)[nH]c2ncc(-c3cccc(F)c3)nc21 [Compound 17]
OBSERVED_MEASUREMENT: 44 µM
//
COMPOUND: CN1CCN(c2cnc3[nH]c(=O)n(C4CCCCC4)c3n2)CC1 [Compound 33]
OBSERVED_MEASUREMENT: > 50 µM
//
COMPOUND: O=c1[nH]c2ncc(-c3ccccc3CO)cc2n1C1CCCCC1 [Compound 53]
OBSERVED_MEASUREMENT: > 50 µM
//
COMPOUND: O=c1[nH]c2ncc(-c3ccccc3CO)nc2n1C1CCCCC1 [Compound 28]
OBSERVED_MEASUREMENT: > 50 µM

If you can, please state the reported EC50 value of O=c1[nH]c2ncc(-c3ccc(CO)cc3)nc2n1C1CCCCC1 [Compound 21] .
> 50 µM

What measured EC50 goes with COc1ccc(-c2cnc3[nH]c(=O)n(C4CCCCC4)c3n2)cc1 [Compound 20] ?
24 µM

I have this compound here, O=c1[nH]c2ncc(-c3ccccc3)nc2n1-c1ccccc1 [Compound 37] , and I need its recorded EC50.
> 50 µM

// EC50 lookup, key: O=c1[nH]c2ncc(-c3ccc(F)cc3)nc2n1Cc1ccccc1 [Compound 9]
> 50 µM
